# Test system: PfAP2-HC AP2 domain (GST-tagged)
# Protocol summary: gcPBM binding intensity (ln(normalized median fluorescence intensity)); higher = stronger DNA binding
Whole data set: some 25,000 sequences, median “ln(normalized median fluorescence intensity)” near 9.7, cut for the highest 2% near 11. This is one part of a sample in which the highest values are shown more often than they occur.
The label depends only on gcPBM binding intensity (ln): true if it is at least 10, false if it is smaller.

{"Input sequence": "TATACATACATACATACACACACACCGATATATACA [CACACA_site8184]", "Answer label": "true"}
{"Input sequence": "TCCTTATTACTTTTTTAAGTCGTAATGAAAGAAAAA [CACACA_negctrl_site1497]", "Answer label": "false"}
{"Input sequence": "AAAAAACAGACATACACACACACACCCATATATATA [CACACA_site3392]", "Answer label": "true"}
{"Input sequence": "AAAACAAACAGACACACACACATATTTATATTTATA [CACACA_site7681]", "Answer label": "true"}
{"Input sequence": "ATTATAGACACGCGCACACACAACAAAAAAAAAAAA [CACACA_site9180]", "Answer label": "true"}
{"Input sequence": "CACAAACAAAGACACACACACACACGCACAAAAATG [CACACA_site7193]", "Answer label": "true"}
{"Input sequence": "CATAAAATATAAAACACACACACATATATTTATATA [CACACA_site6247]", "Answer label": "true"}
{"Input sequence": "TAAACATACAGATACACACACACACCCACAGAGACA [CACACA_site4429]", "Answer label": "true"}
{"Input sequence": "ACATAAATTTAATACACACACAAAGAAAAAAAAAAA [CACACA_site4088]", "Answer label": "true"}
{"Input sequence": "AAAAAGAAAAAACTTACACACATATATACACCCATG [CACACA_site8079]", "Answer label": "true"}
{"Input sequence": "TAAAAAAAAAAAAAAACACACATATAAATATTTATA [CACACA_site6702]", "Answer label": "false"}
{"Input sequence": "AAAACAAACAGACACACACACATATATATATATATA [CACACA_site3655]", "Answer label": "true"}
{"Input sequence": "GAGATAAAATAAAACACACACATATATTTATATAAC [CACACA_site7098]", "Answer label": "true"}

---

# Test system: PfAP2-HC AP2 domain (GST-tagged)
# Protocol summary: gcPBM binding intensity (ln(normalized median fluorescence intensity)); higher = stronger DNA binding
In all, about 25,000 sequences were measured (“ln(normalized median fluorescence intensity)”: median about 9.7, highest 2% from about 11 on). This is one part of a sample in which the highest values are shown more often than they occur.
Measurement kind: gcPBM binding intensity (ln)

{"Input sequence": "AAATATATATATATAATACACACTAAAGTAACATAA [CACACA_site2870]", "Assay value": 10}
{"Input sequence": "AAATATTTATAGGTTTGTACTTATAAATAAAAAAAA [XGTACX_site7360]", "Assay value": 9.5}
{"Input sequence": "AAACAACATGGACACGCACACACAAAAAAAGCATGC [CACACA_site73]", "Assay value": 10.7}
{"Input sequence": "CACGCATACAGACACACACACACACGGATATAAATA [CACACA_site6445]", "Assay value": 11.6}
{"Input sequence": "ATAGTATACAGACACACACACACACGGATATAAATA [CACACA_site6914]", "Assay value": 10.6}
{"Input sequence": "AAAATACATAGACACACACACACACGGATATAAATA [CACACA_site7643]", "Assay value": 11.2}
{"Input sequence": "AAATATAAAAATAGCACACATATATACATATATATA [CACACA_site56]", "Assay value": 9.88}
{"Input sequence": "ATAATCCTTAAACACACACACACACTAATAAATAAA [CACACA_site8052]", "Assay value": 10.8}
{"Input sequence": "TTTAATTCTTATATTTGTACAGATTCATAATTAAAT [XGTACX_site7465]", "Assay value": 9.41}
